Reference for the values: ChEMBL document CHEMBL1641396

The reader will find pKi measurements below, all made with Cannabinoid receptor 1 (Homo sapiens, UniProt P21554).
Sequence (P21554 whole entry): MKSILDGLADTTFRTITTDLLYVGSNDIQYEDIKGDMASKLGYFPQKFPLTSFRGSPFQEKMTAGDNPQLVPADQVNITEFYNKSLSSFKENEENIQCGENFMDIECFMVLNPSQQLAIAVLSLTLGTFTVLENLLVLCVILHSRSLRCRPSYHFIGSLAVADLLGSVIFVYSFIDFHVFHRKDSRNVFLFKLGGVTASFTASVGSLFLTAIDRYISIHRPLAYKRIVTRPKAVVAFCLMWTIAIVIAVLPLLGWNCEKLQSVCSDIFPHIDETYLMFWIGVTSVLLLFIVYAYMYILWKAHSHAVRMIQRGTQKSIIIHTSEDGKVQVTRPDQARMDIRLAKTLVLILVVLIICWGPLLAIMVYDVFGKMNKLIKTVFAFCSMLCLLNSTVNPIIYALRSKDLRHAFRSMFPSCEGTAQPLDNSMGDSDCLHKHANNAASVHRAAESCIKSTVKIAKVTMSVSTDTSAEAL
pKi: −log10 of the molar value.

{"Structure Notation": "CCCCCn1cc(C(=O)NC23CC4CC(CC(C4)C2)C3)c(=O)cc1-c1ccc(C)cc1", "pKi": 6.87}
{"Structure Notation": "CCCCCn1cc(C(=O)NC2CCCCC2)c(=S)cc1-c1ccccc1", "pKi": "< 6.00"}
{"Structure Notation": "CCCCCn1cc(NC(=O)OC(C)(C)C)c(=O)cc1-c1ccccc1", "pKi": "< 5.52"}
{"Structure Notation": "CCCCCn1cc(C(=O)NC23CC4CC(CC(C4)C2)C3)c(=S)cc1-c1ccccc1", "pKi": "< 6.00"}
{"Structure Notation": "CCCCCn1cc(C(=O)NN2CCCCC2)c(=O)cc1-c1ccccc1", "pKi": "< 5.52"}
{"Structure Notation": "CCCCCn1cc(C(=O)NC23CC4CC(CC(C4)C2)C3)c(=O)cc1-c1cccc(Cl)c1", "pKi": 7.29}
{"Structure Notation": "CCCCn1cc(C(=O)NC23CC4CC(CC(C4)C2)C3)c(=O)cc1-c1ccccc1", "pKi": "< 6.00"}
{"Structure Notation": "CCCCCn1cc(C(=O)NC23CC4CC(CC(C4)C2)C3)c(=O)cc1-c1ccc(Cl)cc1", "pKi": "< 6.00"}
{"Structure Notation": "CCCCCn1cc(NC(=O)C2CCCCC2)c(=O)cc1-c1ccccc1", "pKi": "< 5.52"}
{"Structure Notation": "CCCCCn1cc(C(=O)NC23CC4CC(CC(C4)C2)C3)c(=O)cc1-c1ccccc1Cl", "pKi": 7.46}
